What TGI was measured for each of the following?
Tested on: SK-OV-3 ovarian
Experiment: NCI tumour cell line growth inhibition, 48 h

Examples with their reported TGI follow.
compound=CCN(CC)CCO[Si](OCCN(CC)CC)(OCCN(CC)CC)OCCN(CC)CC measurement_target="SK-OV-3 ovarian" measurement_name=TGI meas_value="> 100 µM"
compound="CCCCCCCCCCCCOP(=O)(O)OP(=O)(O)OCC1OC(n2cc(C)c(=O)[nH]c2=O)CC1O (stereo not given)" measurement_target="SK-OV-3 ovarian" measurement_name=TGI meas_value="> 100 µM"
compound=O=C(O)c1ccc(N/C(=C(/C(Cl)=C(Cl)Cl)[N+](=O)[O-])n2nnc3ccccc32)cc1 measurement_target="SK-OV-3 ovarian" measurement_name=TGI meas_value="> 100 µM"
compound=Cc1ccc(-c2n[nH]c(=O)c3noc(-c4ccc(C)cc4)c23)cc1 measurement_target="SK-OV-3 ovarian" measurement_name=TGI meas_value="11.5 µM"
compound=N#Cc1nc(/C=C/c2cccnc2)oc1N measurement_target="SK-OV-3 ovarian" measurement_name=TGI meas_value="> 100 µM"

List TGI for every entry below, keeping the order given.
1. COc1ccccc1NC(=S)N/N=C/c1cccc(C)n1
2. CCOC(=O)C1=C(C)N(C2OC(COC(=O)c3ccccc3)C(OC(=O)c3ccccc3)C2OC(=O)c2ccccc2)C(=S)NC1c1ccccc1 (stereo not given)
3. CCOC(C)OC1CC(n2cc(C)c(=O)[nH]c2=O)OC1CO (stereo not given)
4. COCCN1C(=O)C2c3[nH]c4ccccc4c3C3CCC(C(C)(C)C)CC3C2C1=O (stereo not given)
5. Cc1c(Cl)cccc1NC(=O)c1sc2nc3c(cc2c1N)CCCC3
6. O=c1c2ccccc2nc(-c2ccccc2)n1NC(=S)Nc1cccc(Cl)c1
7. O=c1[nH]cc(C(F)(C(F)(F)F)C(F)(F)F)c(=O)[nH]1
8. CC(C)C(NC(=O)C(Cc1ccccc1)NC(=O)[C@H]1CCC[C@H]1NC(=O)C(Cc1ccc(OC(C)(C)C)cc1)NC(=O)OC(C)(C)C)C(N)=O (stereo not given in full)

Completion:
1: > 44.4 µM; 2: > 100 µM; 3: > 100 µM; 4: 42.7 µM; 5: > 100 µM; 6: > 100 µM; 7: > 100 µM; 8: 57.6 µM

List TGI for every entry below, keeping the order given.
1. Cc1c(Cl)c(C)c(Cc2c(C)c(Cl)c(C)c(Cl)c2O)c(O)c1Cl
2. N#CC(C(=O)CCCC(=O)Nc1ccc(Cl)cc1Cl)c1ccc(Cl)cc1 (stereo not given)
3. Cc1csc(-n2c(C)nc3cc(Cl)ccc3c2=O)n1
4. N#Cc1nc(-c2cccc(-c3nc(C#N)c(N)o3)n2)oc1N
5. CCOC(=O)c1c(C)n(Cc2ccccc2)c2c1cc1oc(=O)c(=O)n3cnc2c13
6. COc1ccc(C2=NC(c3ccc(Cl)cc3)C(c3ccc(Cl)cc3)N2C(=O)N2CCNC(=O)C2)c(OC(C)C)c1 (stereo not given)
7. O=C1CCC(=O)c2sccc2N1

Completion:
1: 9.46 µM; 2: > 100 µM; 3: > 100 µM; 4: > 100 µM; 5: > 50 µM; 6: 4.31 µM; 7: > 100 µM
